# Target of assay: T1, PC2 (UniProt P16519 110-638)
# T1 chain: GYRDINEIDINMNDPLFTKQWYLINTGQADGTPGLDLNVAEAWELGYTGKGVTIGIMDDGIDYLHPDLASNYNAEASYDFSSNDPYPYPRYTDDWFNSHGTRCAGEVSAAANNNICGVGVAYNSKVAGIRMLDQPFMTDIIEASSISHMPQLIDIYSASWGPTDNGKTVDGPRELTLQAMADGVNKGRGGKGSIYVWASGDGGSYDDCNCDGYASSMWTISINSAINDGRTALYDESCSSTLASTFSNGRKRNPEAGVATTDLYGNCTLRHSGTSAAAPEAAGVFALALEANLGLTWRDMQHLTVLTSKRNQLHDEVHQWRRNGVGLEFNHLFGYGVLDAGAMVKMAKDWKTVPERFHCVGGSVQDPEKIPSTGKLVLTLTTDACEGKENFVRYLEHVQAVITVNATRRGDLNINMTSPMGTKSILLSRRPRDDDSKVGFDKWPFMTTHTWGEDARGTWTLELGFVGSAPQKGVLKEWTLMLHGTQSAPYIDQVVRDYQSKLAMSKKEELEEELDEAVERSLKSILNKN
# Experimental details: enzyme inhibition
pKi: −log10 of the molar value. No end group written: not given here.
Reported metric: pKi

INSERT INTO assay_data (binder, numeric_value) VALUES
  ('LLRVKR-NH2 [LLRVKR-NH2]', 5.49),
  ('LLLLLLRVKR-NH2 [LLLLLLRVKR-NH2]', 5.34),
  ('LLLRVKR-NH2 [LLLRVKR-NH2]', 4.89),
  ('LLLLLRVKR-NH2 [LLLLLRVKR-NH2]', 5.32);
